Hello, the source for this data is patent US20230355626A1, in case you need it.

Experiment: Compound cytotoxicity, XTT-based colorimetric assay
Type: cell-based
Settings: human; uninfected MT2 cells, day 4, XTT assay
quantity_name: CC50 at 4 day

compound: Cn1nc(NS(C)(=O)=O)c2c(Cl)ccc(-n3c([C@H](Cc4cc(F)cc(F)c4)NC(=O)Cn4nc(C(F)F)c5c4C(F)(F)[C@@H]4C[C@H]54)nc4nc(OCC5(C(F)(F)F)CC5)ccc4c3=O)c21 (atropisomer, axis not shown; (P))
CC50 at 4 day: > 500 nM

Field: next compound
query: Find the recorded CC50 at 4 day belonging to Cn1nc(NS(C)(=O)=O)c2c(Cl)ccc(-n3c([C@H](Cc4cc(F)cc(F)c4)NC(=O)Cn4nc(C(F)F)c5c4C(F)(F)[C@@H]4C[C@H]54)nc4nc(OCCNCC(F)(F)F)ccc4c3=O)c21 (atropisomer, axis not shown; (P)) and report it.
result: > 100 nM
